- TARGET OF ASSAY: K417E RBD (R319-F541 with K417E) (SARS-CoV-2, UniProt P0DTC2 319-541)
- PROCEDURE TEXT: lateral flow NC50, RBD-AuNP vs immobilised ACE2
Overview of reported IC50 across a group of binders:
PROPERTY MEASURED: IC50 (µg/mL)

1. 1035740 (antibody, V domains shown) VH: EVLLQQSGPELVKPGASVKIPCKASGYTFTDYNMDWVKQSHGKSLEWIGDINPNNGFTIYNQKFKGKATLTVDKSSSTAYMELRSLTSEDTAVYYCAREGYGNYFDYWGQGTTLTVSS VL: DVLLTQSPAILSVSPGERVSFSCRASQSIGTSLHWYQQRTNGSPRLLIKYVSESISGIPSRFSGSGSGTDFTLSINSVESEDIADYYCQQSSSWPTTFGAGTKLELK    1.09
2. 1035753 (antibody, V domains shown) VH: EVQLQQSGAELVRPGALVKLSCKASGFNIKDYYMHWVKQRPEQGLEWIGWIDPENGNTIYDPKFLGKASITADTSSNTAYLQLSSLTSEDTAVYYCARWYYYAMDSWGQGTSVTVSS VL: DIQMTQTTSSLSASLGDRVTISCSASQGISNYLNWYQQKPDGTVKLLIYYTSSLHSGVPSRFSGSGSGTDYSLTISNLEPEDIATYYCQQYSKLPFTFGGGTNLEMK    0.89
